molecular target: recombinant human MASP2 (amino acids 297-686, C-terminal His Tag) (human, UniProt O00187 297-686); test: cell-based or functional assay
Sequence (O00187 other isoform, or with tags, fused parts or gaps limits assumed): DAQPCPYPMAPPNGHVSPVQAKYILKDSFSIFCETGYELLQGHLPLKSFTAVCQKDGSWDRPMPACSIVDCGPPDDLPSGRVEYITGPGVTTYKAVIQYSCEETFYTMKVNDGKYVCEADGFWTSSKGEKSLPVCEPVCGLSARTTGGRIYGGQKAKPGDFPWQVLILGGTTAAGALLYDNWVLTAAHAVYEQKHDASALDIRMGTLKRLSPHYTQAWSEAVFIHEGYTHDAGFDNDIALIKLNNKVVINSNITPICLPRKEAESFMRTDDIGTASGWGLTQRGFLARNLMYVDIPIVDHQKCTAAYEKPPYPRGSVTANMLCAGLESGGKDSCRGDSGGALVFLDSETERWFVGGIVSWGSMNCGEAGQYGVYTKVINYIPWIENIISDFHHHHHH
Bridges are numbered along the chain shown (N, C = ends). Where no end group is shown, it is not given here. [ ]: non-standard residue; d: D form. Oic = O=C(O)[C@@H]1C[C@@H]2CCCC[C@@H]2N1; Trx = NC[C@H]1CC[C@H](C(=O)O)CC1; tBuAla = CC(C)(C)C[C@H](N)C(=O)O; Pen = CC(C)(S)[C@H](N)C(=O)O; Dap = NC[C@H](N)C(=O)O
quantity: human MASP2 IC50 (nM)

A = cyclo([Dap][Dap]ICSRS[tBuAla]PPI[Pen]I) (disulfide 4-12; also: TFA salt) [Example 57: (Dap)**-(Dap)-IC+SRS-((tBu)A)-PPI-(Pen)+-I**]
B = G[Trx]GICSRS[tBuAla]PPI[Pen]IPD-NH2 (disulfide 5-13; lactam N-16; also: TFA salt) [Example 62: G**-(TXA)-GIC+SRS-((tBu)A)-PPI-(Pen)+-IPD++-NH2]
C = EGICSRSLP[Oic]I[Pen]IPDK-NH2 (lactam 1-16; disulfide 4-12; also: TFA salt) [Example 91: E++GIC+SRSLP-(Oic)-I-(Pen)+-IPDK++-NH2]
Ascending by human MASP2 IC50, please. Answer format: the labels, in the requested order.
C, A, B
